pIC50: −log10 of the molar value.
Reported pIC50 against Tyrosine-protein kinase JAK2 (Homo sapiens, UniProt O60674), gathered from multiple publications, appears below.

(Q) What value of pIC50 has been reported for the following molecule? `COc1cc2ccc1C(=O)NCCCCCNc1nc(ncc1C)Nc1cc-2cnc1F`
(A) 5.00 to 6.00

(Q) What value of pIC50 has been reported for the following molecule? Cn1cc(-c2cc3nccn3c(-c3cnn(C(CC(N)=O)C4CC4)c3)n2)cn1 (centres unmarked)
(A) 6.00 to 7.00

(Q) What value of pIC50 has been reported for the following molecule? `CCC[C@H](Cn1ccc2cnc(Nc3cnn(CC(=O)OC(C)C)c3)nc21)C(C)C`
(A) > 7.00

(Q) What value of pIC50 has been reported for the following molecule? `CNC(=O)[C@H]1C[C@H](NC(=O)c2nn(C)c3c2CN(c2ncnc4[nH]ccc24)CC3)C1`
(A) < 5.70

(Q) What value of pIC50 has been reported for the following molecule? `N#CCC1(n2cc(-c3ccnc(Nc4ccc(-n5cccn5)cc4)n3)cn2)CCN(S(=O)(=O)C2CC2)CC1`
(A) > 7.00

(Q) What value of pIC50 has been reported for the following molecule? `COc1cccc(-c2cc(C(N)=O)c3[nH]c4cc(C(=O)N(C)CCS(C)(=O)=O)ccc4c3c2)c1`
(A) > 9.00

(Q) What value of pIC50 has been reported for the following molecule? `NC(=O)c1cnc(Nc2ccc3c(c2)OC[C@H]2CN(C(=O)C(F)(F)F)CCN32)nc1NC1CC1`
(A) > 7.30

###

Reported IC50 against Tyrosine-protein kinase JAK2 (Homo sapiens), gathered from multiple publications, appears below.

INSERT INTO assay_data (compound, assay_readout, observed_value) VALUES
  ('CCn1c(C(=O)N(C2CC2)C2CC2)cc2c3c(ncn3C)c(Nc3ncc(C#N)s3)nc21', 'IC50', '40 nM'),
  ('NC(=O)c1cnc(Nc2ccc3c(c2)NC[C@H](O)CO3)nc1NCC1CC1', 'IC50', '< 10 nM'),
  ('N#CCC(C1CCCC1)n1cc(-c2ncnc3[nH]ccc23)c(C(=O)NCCN)n1 (centres unmarked)', 'IC50', '< 20 nM'),
  ('Cc1cnc(Nc2ccccc2)nc1-c1cnn(C(CC#N)CC2CCN(S(=O)(=O)c3ccn(C)n3)CC2)c1 (racemic)', 'IC50', '< 100 nM'),
  ('CCC(=O)c1cnc(Nc2cc(CN3CCOCC3)ccn2)cc1Nc1cccc(-c2ncn(C)n2)c1OC', 'IC50', '≥ 500 nM');

(Q) Write down the reported IC50 of `CCN(c1ccc(O)cc1CNc1nc(-c2cc(F)c(O)cc2CC(F)(F)F)cc2[nH]nc(C(N)=O)c12)S(=O)(=O)c1ccccc1` , test system: Tyrosine-protein kinase JAK2 (Homo sapiens).
(A) 302 nM

(Q) Write down the reported IC50 of `CC1(C)CN(C(=O)[C@@H]2CCC(=O)N2)C[C@@H](F)[C@H]1Oc1ccc(-c2ncnc(Nc3ccc(N4CCN(C5COC5)CC4)cc3)n2)cc1C#N` , test system: Tyrosine-protein kinase JAK2 (Homo sapiens).
(A) 90 nM

(Q) Write down the reported IC50 of `O=C(N[C@H]1C[C@@](O)(C(F)(F)F)C1)c1noc2c1CN(c1ncnc3[nH]ccc13)CC2` , test system: Tyrosine-protein kinase JAK2 (Homo sapiens).
(A) < 100 nM

(Q) Write down the reported IC50 of `CC1(N2CC(CC#N)(n3cc(-c4ncnc5[nH]ccc45)cn3)C2)CCN(C(=O)c2cccc(F)c2)CC1` , test system: Tyrosine-protein kinase JAK2 (Homo sapiens).
(A) 10 to 50 nM

(Q) Write down the reported IC50 of `CCC(=O)c1cnc(Nc2cc(C(=O)N(C)C)ncn2)cc1Nc1cccc(-c2ncn(C)n2)c1OC` , test system: Tyrosine-protein kinase JAK2 (Homo sapiens).
(A) ≥ 500 nM

(Q) Write down the reported IC50 of `CN1CCC(N2Cc3cc4nc(-c5c(NC[C@@H](O)COc6ccc(F)cc6F)cc[nH]c5=O)[nH]c4cc3C2=O)CC1` , test system: Tyrosine-protein kinase JAK2 (Homo sapiens).
(A) < 500 nM

###

Reported pIC50 against Tyrosine-protein kinase JAK2 (Homo sapiens, UniProt O60674), gathered from multiple publications, appears below.
pIC50: −log10 of the molar value.

Example compounds with recorded pIC50:
INSERT INTO results (compound, observed_value) VALUES
  ('Cn1cc(-c2cc3nccn3c(-c3cnn(C4(CC#N)CN(S(=O)(=O)C5CCCCC5)C4)c3)n2)cn1', '6.00 to 7.00'),
  ('O=C1NCCCCOCc2cc(ccc2C2CC2)Nc2nccc(n2)-c2ccc1cc2F', '6.00 to 7.00'),
  ('Cc1nccc(-c2cccc(Nc3nccc(-c4cnn(C(CC#N)C5CCCC5)c4)n3)c2)n1 (racemic)', '> 7.00'),
  ('CN(c1ncnc2[nH]ccc12)[C@H]1C[C@@H]2CN(C(=O)[C@H](O)CO)C[C@@H]2C1', 6.69);

Read the next record carefully.
(Q) Write down the reported pIC50 of `N#CCC1(n2cc(-c3ncnc4[nH]ccc34)cn2)CN(C2CCN(C(=O)c3cccc(Cl)c3)CC2)C1` , test system: Tyrosine-protein kinase JAK2 (Homo sapiens, UniProt O60674).
(A) ≥ 8.00

###

Reported pIC50 against Tyrosine-protein kinase JAK2 (Homo sapiens, UniProt O60674), gathered from multiple publications, appears below.
pIC50: −log10 of the molar value.

INSERT INTO assay_data (compound, assay_readout, observed_value) VALUES
  ('COc1ccc(Nc2ncnc(-c3ccc(OC4CCOCC4)c(C#N)c3)n2)cn1', 'pIC50', '< 6.00'),
  ('CN1CCC(N2C(=O)c3cc4nc(-c5c(NCC(O)COc6ccccc6)cc[nH]c5=O)[nH]c4cc3C2=O)CC1 (stereo not shown)', 'pIC50', '5.30 to 6.30'),
  ('CN1CCC(N2C(=O)c3cc4nc(-c5c(NN)ccnc5O)[nH]c4cc3C2=O)CC1', 'pIC50', '4.82 to 5.30'),
  ('C[C@@H](O)c1nc2cnc3ccsc3c2n1C1CCCC(CCC#N)C1 (stereo partly shown)', 'pIC50', '< 5.70'),
  ('CC(C)OCCO[C@H]1CNc2cc(Nc3ncc(C(N)=O)c(NC4CC4)n3)ccc2OC1', 'pIC50', '7.00 to 8.00');

(Q) What value of pIC50 has been reported for the following compound? `N#CCC1(n2cc(-c3ncnc4[nH]ccc34)cn2)CN(C2CCN(C(=O)C3CCCC3)CC2)C1`
(A) < 7.00

(Q) What value of pIC50 has been reported for the following compound? `CCS(=O)(=O)N1CC(CC#N)(n2cc(-c3nc(Nc4ccc(-n5cnnn5)cc4)nc4ccsc34)cn2)C1`
(A) > 7.30

###

Reported IC50 against Tyrosine-protein kinase JAK2 (Homo sapiens, UniProt O60674), gathered from multiple publications, appears below.

INSERT INTO results (compound, target_system, assay_readout, observed_value) VALUES
  ('CCc1cc(O)c(F)cc1-c1cc2[nH]nc(C(=O)NC)c2c(NCc2cc(O)ccc2N(C)S(C)(=O)=O)n1', 'Tyrosine-protein kinase JAK2 (Homo sapiens, UniProt O60674)', 'IC50', '7 nM');

(Q) What value of IC50 has been reported for the following compound? N#CCC(C1CCCC1)n1cc(-c2ccnc(Nc3cccc(C(=O)N4CCNC(=O)C4)c3)n2)cn1 (racemic)
(A) < 100 nM

(Q) What value of IC50 has been reported for the following compound? `C[C@H](O)C(=O)N1CC[C@H](Oc2ccc(-c3ncnc(Nc4ccc(N5CCN(C6COC6)CC5)nc4)n3)cc2C#N)[C@H](F)C1`
(A) ≥ 1000 nM

(Q) What value of IC50 has been reported for the following compound? `N#Cc1cc(-c2ncnc(Nc3ccc(N4CCN(C5COC5)CC4)cc3)n2)ccc1O[C@@H]1CCC(=O)NC1`
(A) 200 nM

(Q) What value of IC50 has been reported for the following compound? `N#CCC1(n2cc(-c3ncnc4[nH]ccc34)cn2)CN(C2CCN(C(=O)c3ccccc3)CC2)C1`
(A) 10 to 50 nM

(Q) What value of IC50 has been reported for the following compound? COc1cnc(Nc2cccc(C(=O)N3CCC3)c2)nc1-c1cnn(C(CC#N)C2CC2)c1 (racemic)
(A) < 100 nM

###

pIC50: −log10 of the molar value.
Reported pIC50 against Tyrosine-protein kinase JAK2 (Homo sapiens), gathered from multiple publications, appears below.

Example molecules with recorded pIC50:
INSERT INTO results (molecule, assay_readout, observed_value) VALUES
  ('CCOC(=O)Cn1cc(Nc2ncc3ccn(C[C@@H]4C[C@@H]5C[C@@H]5C4)c3n2)cn1', 'pIC50', '> 7.00'),
  ('CN1CCN(CCn2cc(-c3cc4nccn4c(-c4cnn(C(CC#N)C5CC5)c4)n3)cn2)CC1 (stereo not drawn)', 'pIC50', '7.00 to 8.00');

Read the next record carefully.
(Q) What value of pIC50 has been reported for the following molecule? `Cc1ccc(OC[C@H](O)CNc2cc[nH]c(=O)c2-c2nc3cc4c(cc3[nH]2)CN(C2CCN(C)CC2)C4=O)c(Br)c1`
(A) > 6.30
